Kindly state MBC for each of the entries shown.
system: Staphylococcus aureus; test: Antibacterial activity against methicillin-resistant Staphylococcus aureus incubated in dark for 30 mins and grown for 24 hrs followed by further incubation on LB agar plates for another 24 hrs; assay type: functional
Numbers only, in µM.

{"Compound structure": "NCCCC[C@H](N)C(=O)Nc1ccc(-c2c3nc(c(-c4ccc(NC(=O)[C@@H](N)CCCCN)cc4)c4ccc([nH]4)c(-c4ccc(NC(=O)[C@@H](N)CCCCN)cc4)c4nc(c(-c5ccc(NC(=O)[C@@H](N)CCCCN)cc5)c5ccc2[nH]5)C=C4)C=C3)cc1", "MBC [µM]": 125}

Now consider a different molecule.
# assay system Staphylococcus aureus: give MBC of NCCCC[C@H](N)C(=O)Nc1ccc(-c2c3nc(c(-c4ccccc4)c4ccc([nH]4)c(-c4ccc(NC(=O)[C@@H](N)CCCCN)cc4)c4nc(c(-c5ccccc5)c5ccc2[nH]5)C=C4)C=C3)cc1
250

###

experiment: Stability in mouse serum assessed as compound remaining after 24 hrs by RP-HPLC method; type: ADME; conditions: read-out: Stability
Measurement label: remaining at 24 h

Quickly give me recorded remaining at 24 h for NCCCC[C@H](N)C(=O)Nc1ccc(-c2c3nc(c(-c4ccc(NC(=O)[C@@H](N)CCCCN)cc4)c4ccc([nH]4)c(-c4ccc(NC(=O)[C@@H](N)CCCCN)cc4)c4nc(c(-c5ccc(NC(=O)[C@@H](N)CCCCN)cc5)c5ccc2[nH]5)C=C4)C=C3)cc1
85%

###

test system: Escherichia coli; assay: Antibacterial activity against Escherichia coli ATCC 25922 incubated in dark for 30 mins followed by exposure to light fluences at 650 nm and 6 J/cm2 and then incubated overnight measured after 24 hrs; type: functional; details: ATCC 25922, light or radiation study
Kindly state MIC for each of the entries shown.
Answers are plain numbers, in µM.

Hey, can you go through the list below and give me MIC for every item?
1. NCCCC[C@H](N)C(=O)Nc1ccc(-c2c3nc(c(-c4ccccc4)c4ccc([nH]4)c(-c4ccc(NC(=O)[C@@H](N)CCCCN)cc4)c4nc(c(-c5ccccc5)c5ccc2[nH]5)C=C4)C=C3)cc1
2. Nc1ccc(-c2c3nc(c(-c4ccc(N)cc4)c4ccc([nH]4)c(-c4ccccc4)c4nc(c(-c5ccccc5)c5ccc2[nH]5)C=C4)C=C3)cc1
3. NCCCC[C@H](N)C(=O)Nc1ccc(-c2c3nc(c(-c4ccc(N)cc4)c4ccc([nH]4)c(-c4ccc(NC(=O)[C@@H](N)CCCCN)cc4)c4nc(c(-c5ccc(N)cc5)c5ccc2[nH]5)C=C4)C=C3)cc1
4. NCCCC[C@H](N)C(=O)Nc1ccc(-c2c3nc(c(-c4ccc(NC(=O)[C@@H](N)CCCCN)cc4)c4ccc([nH]4)c(-c4ccccc4)c4nc(c(-c5ccccc5)c5ccc2[nH]5)C=C4)C=C3)cc1
5. NCCCC[C@H](N)C(=O)Nc1ccc(-c2c3nc(c(-c4ccccc4)c4ccc([nH]4)c(-c4ccccc4)c4nc(c(-c5ccccc5)c5ccc2[nH]5)C=C4)C=C3)cc1

1. 15.6
2. 62.5
3. 15.6
4. 31.2
5. 500

###

experiment: Octanol water partition coefficient, log P of the compound by reverse-phase thin-layer chromatography; format: physicochemical
Measurement label: logP
One number for each entry.

Hey, can you go through the list below and give me logP for every item?
1. NCCCC[C@H](N)C(=O)Nc1ccc(-c2c3nc(c(-c4ccccc4)c4ccc([nH]4)c(-c4ccc(NC(=O)[C@@H](N)CCCCN)cc4)c4nc(c(-c5ccccc5)c5ccc2[nH]5)C=C4)C=C3)cc1
2. N=C(N)NCCC[C@H](N)C(=O)Nc1ccc(-c2c3nc(c(-c4ccccc4)c4ccc([nH]4)c(-c4ccccc4)c4nc(c(-c5ccccc5)c5ccc2[nH]5)C=C4)C=C3)cc1
3. NCCCC[C@H](N)C(=O)Nc1ccc(-c2c3nc(c(-c4ccc(N)cc4)c4ccc([nH]4)c(-c4ccccc4)c4nc(c(-c5ccccc5)c5ccc2[nH]5)C=C4)C=C3)cc1
4. NCCCC[C@H](N)C(=O)Nc1ccc(-c2c3nc(c(-c4ccc(N)cc4)c4ccc([nH]4)c(-c4ccc(N)cc4)c4nc(c(-c5ccc(N)cc5)c5ccc2[nH]5)C=C4)C=C3)cc1
5. NCCCC[C@H](N)C(=O)Nc1ccc(-c2c3nc(c(-c4ccc(N)cc4)c4ccc([nH]4)c(-c4ccc(NC(=O)[C@@H](N)CCCCN)cc4)c4nc(c(-c5ccc(N)cc5)c5ccc2[nH]5)C=C4)C=C3)cc1
6. NCCCC[C@H](N)C(=O)Nc1ccc(-c2c3nc(c(-c4ccc(NC(=O)[C@@H](N)CCCCN)cc4)c4ccc([nH]4)c(-c4ccc(NC(=O)[C@@H](N)CCCCN)cc4)c4nc(c(-c5ccc(N)cc5)c5ccc2[nH]5)C=C4)C=C3)cc1
7. NCCCC[C@H](N)C(=O)Nc1ccc(-c2c3nc(c(-c4ccc(NC(=O)[C@@H](N)CCCCN)cc4)c4ccc([nH]4)c(-c4ccc(NC(=O)[C@@H](N)CCCCN)cc4)c4nc(c(-c5ccc(NC(=O)[C@@H](N)CCCCN)cc5)c5ccc2[nH]5)C=C4)C=C3)cc1

1: 1.37; 2: 1.45; 3: 1.47; 4: 1.4; 5: 1.3; 6: 1.21; 7: 0.9

Quickly give me recorded logP for NCCCC[C@H](N)C(=O)Nc1ccc(-c2c3nc(c(-c4ccccc4)c4ccc([nH]4)c(-c4ccccc4)c4nc(c(-c5ccccc5)c5ccc2[nH]5)C=C4)C=C3)cc1
1.69

FYI, the data here is from ChEMBL document CHEMBL3407491.
